# assay_info: IGROV1 ovarian cancer cell cytotoxicity, dose response, PAX8 inhibitor project, plate reader, dry powder samples (AID 743043);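 also: more negative means fewer viable cells or more cytotoxicity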
# run_parameters: series mostly up to 35 µM
Entries with a potency or affinity are not part of this list. Results filed as inconclusive are left out. The source made the active and inactive calls. No rule for the calls is given here.
property_name: outcome

C[C@@H]1CN([C@H](C)CO)C(=O)c2cc(NS(=O)(=O)c3ccc(F)cc3)ccc2O[C@@H](C)CCCCO[C@@H]1CN(C)Cc1ccccc1 | inactive
C[C@@H]1CCCCO[C@H](CN(C)C(=O)Nc2ccc(F)cc2)[C@@H](C)CN([C@@H](C)CO)C(=O)c2cc(NS(=O)(=O)c3ccc(Cl)cc3)ccc2O1 | inactive
C[C@H]1CN([C@@H](C)CO)C(=O)c2c(c3ccccc3n2C)-c2ccccc2CO[C@@H]1CN(C)S(=O)(=O)c1cccc(F)c1 | inactive

* * *

# System: Wnt5a (protein binding on small-molecule microarray)
# assay_info: Wnt5a binders on small-molecule microarray, primary screen, biophysical, 635/667 nm fluorescence (AID 1142);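 also: fluorescence read at 667 nm with signal to noise per printed feature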
# run_parameters: 635 nm fluorescence, higher = more signal
property_name: composite z-score

[N-]=[N+]=NCc1ccccc1C[C@]1(C(=O)NCc2ccccc2)N=C(c2ccc(OCCCO)cc2)O[C@H]1c1ccccc1 | 0.46
C=C(/C(=C/C[C@H](OC(=O)c1ccncc1)c1cccc(OCCO)c1)c1cc(C(=O)OC)ccc1OC)C(C)C | -0.158
O=C(NCc1ccccc1)[C@@H]1c2ccccc2C(=O)N(Cc2ccccc2Cl)[C@H]1c1ccc(CO)cc1 | 0.531
CC(=O)OC(C/C=C\B1OC(C)(C)C(C)(C)O1)c1ccccc1 (configuration not stated) | -0.115
COc1ccc(C(=O)Nc2cccc(CN3C(=O)[C@@]4(O[C@@H](CCO)[C@H]([Si](C)(C)c5ccc(OC)cc5)[C@H]4C)c4ccccc43)c2)cc1 | 0.143
CCOC(=O)C[C@H]1[C@H](OC(=O)Cc2ccc3c(c2)OCO3)[C@@H](NC(=O)c2ccc3ccccc3c2)c2cc(OCCCO)ccc2N1C(=O)c1ccc2ccccc2n1 | 0.0364
[N-]=[N+]=Nc1ccccc1[C@H]1OC(c2ccc(OCCCO)cc2)=N[C@@]1(Cc1ccccc1)C(N)=O | 0.792

* * *

Reported z-score values for the following compounds.
# assay_info: FRG1 promoter luciferase signal modulators, primary screen, FRG1 inhibition for FSHD, cell-based, C2C12 myotubes, firefly/Renilla luciferase, luminescence (AID 1084)
# run_parameters: higher = more signal, called active from +8 up or from −8 down
property_name: z-score

C=CCNC(=O)[C@H]1[C@@H]2C(=O)O[C@@H](c3ccccc3)[C@@H](c3ccccc3)N2[C@@H](c2ccccc2OCCO)[C@]12C(=O)N(C(=O)OCCOC)c1ccc(C#CCCO)cc12 | -4.05
C[N+](C)(C)CCCC[C@@H]1NC(=O)[C@H]2C[C@@H](C(=O)NCCCCCN)[C@@H](c3cccc(OCCO)c3)N2C1=O | -0.309
CCOC(=O)C[C@H]1[C@H](OC(=O)c2ccc(-c3ccccc3)cc2)[C@@H](NC(=O)C2CCCCC2)c2cc(OCCCO)ccc2N1C(=O)c1ccc2ccccc2n1 | -0.429
CC(C)(C)OC(=O)CC[C@]1(C(=O)NCc2ccccc2)COC(c2ccc(OCCCO)cc2)=N1 | -2.97
C=CCC1(CC=C)C[C@H]2CO[C@H](c3ccc(OC)cc3)N2C1=O | -0.465
O=C(NO)[C@]1(Cc2ccccc2)N=C(c2ccc(OCCCO)cc2)O[C@@H]1c1ccccc1 | -1.62
COCCCNC(=O)[C@@]1(C)c2ccccc2C(=O)N(Cc2cc(F)cc(C(F)(F)F)c2)[C@H]1c1ccc(CO)cc1 | -1.65

* * *

Parameter composite z-score: see the listing below.
# assay_info: small-molecule microarray binders of probe aEGFR, primary screen, biochemical, biotinylated probe, 635/667 nm fluorescence (AID 1097);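 also: probe is a biotinylated anti-EGFR antibody binding compounds printed on slides; score combines fluorescence near 667 nm and signal to noise of each spot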
# run_parameters: higher = more signal
property_name: composite z-score

COC(=O)C1=CC(c2ccc(CO)cc2)=CC(c2cccs2)N(C)C=C1C(=O)OC (configuration not stated) | -0.135
CC(C)C[C@@H]1NC(=O)[C@@H]2C[C@H](C(=O)NCCCCCNC(=O)CS)[C@H](c3cccc(OCCO)c3)N2C1=O | 0.133
CC(C)C(=C=CC[C@H](O)c1ccc(OCCO)cc1)C[C@H](O)COCc1ccccc1 | -0.166
C=CCC1(CC=C)C[C@H]2CO[C@H](c3ccc(OC)cc3)N2C1=O | -0.0204
C=CCC(OC(C)=O)[C@@H]1[C@@H](N(Cc2cccc3ccccc23)C(=O)c2cccc3ccccc23)c2cc(OCCCO)ccc2N1C(=O)Cc1ccc(OC)cc1 (some centres not stated) | 0.0073
[N-]=[N+]=NCc1ccccc1C[C@]1(C(=O)NCc2ccccc2)N=C(c2ccc(OCCCO)cc2)O[C@H]1c1ccccc1 | 0.1
C=C(COC)/C(=C/C[C@H](OC(C)=O)c1ccc(CO)o1)c1cnc2ccccc2c1 | -0.0616
O=C(N1CCCCC1)[C@@]1(Cc2ccccc2)N=C(c2ccc(OCCCO)cc2)O[C@H]1c1ccccc1 | 0.293
C#CCOc1ccc(C[C@H]2C(=O)O[C@H](Cc3ccccc3)[C@H](/C=C/C3CC3)N2CC#C)cc1 | -0.206
CC(C)CNC(=O)[C@@H]1c2ccccc2C(=O)N(Cc2ccc(OC(F)(F)F)cc2)[C@H]1c1ccc(CO)cc1 | 0.0378
O=C(NCc1ccccc1)[C@@H]1c2ccccc2C(=O)N(Cc2ccccc2Cl)[C@H]1c1ccc(CO)cc1 | 0.103
C=C(C1=CCN(S(=O)(=O)c2ccc(C)cc2)C1)[C@@H](OC(C)=O)[C@@H]1CCCN1S(=O)(=O)c1ccccc1[N+](=O)[O-] | -0.202
CC(C)N1C(=O)c2ccccc2[C@@H](C(=O)NCc2ccccc2)[C@@H]1c1ccc(CO)cc1 | -0.273
COC(=O)c1c2oc(c1C(=O)OC)C(=O)N[C@@H](C(C)C)Cn1nncc1C1(CCCCC1)NC(=O)N[C@H](CO)CC2 | -0.144
Cc1ccc(S[C@]2(C(=O)NC3CC3)CC(=O)N(Cc3ccccc3C(F)(F)F)[C@@H]2c2ccc(CO)cc2I)cc1 | -0.0899
C=C(C(=O)CC[C@H](OC(C)=O)c1ccc(CO)o1)C(C)C | -0.181
CCCCCN1CC=CC23O[C@@H]4/C=C\CCC(C)OC(=O)C4[C@H]2C(=O)N(CCCO)[C@@H]3C1=O (some centres not stated) | -0.262

* * *

# System: Sonic hedgehog protein (Shh)
# assay_info: small-molecule binders of Shh protein, primary screen, biochemical, small-molecule microarray, 635/667 nm fluorescence (AID 1151);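 also: Shh protein binding to compounds spotted on small-molecule microarray slides; score combines spot fluorescence intensity with signal-to-noise across triplicate slides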
# run_parameters: small-molecule microarray binding, 635 nm fluorescence; higher = more signal
Label YES when composite z-score is at or above 0.02; anything below gets NO.

COc1ccc([Si](C)(C)[C@@H]2[C@@H](CC(=O)N3CCC[C@H]3CO)O[C@]3(C(=O)N(Cc4ccc(I)cc4)c4ccccc43)[C@H]2C)cc1 | YES
C=CCC(OC(C)=O)[C@@H]1[C@@H](N(Cc2cccc3ccccc23)C(=O)Cc2ccc(OC)cc2)c2cc(OCCCO)ccc2N1C(=O)Cc1ccc(OC)cc1 (stereo partly drawn) | NO
O=C(NO)[C@]1(Cc2ccccc2)N=C(c2ccc(OCCCO)cc2)O[C@@H]1c1ccccc1 | NO
COCCOC(=O)N1C(=O)[C@@]2(c3ccccc31)[C@H](C(=O)Nc1nc3ccccc3s1)[C@H]1C(=O)O[C@H](c3ccccc3)[C@H](c3ccccc3)N1[C@@H]2c1ccc(O)cc1 | YES
CC(C)(C)OC(=O)CC[C@@]1(C(=O)N2CCOCC2)N=C(c2ccc(OCCCO)cc2)O[C@@H]1c1ccccc1 | NO
CC(C)CCC[C@@H](C)[C@H]1CC[C@@]2(C)C3=C(CC[C@]12C)[C@@]1(C)CC[C@H](OC(=O)CCl)C(C)(C)C1CC3 (stereo partly drawn) | YES
C=C(COC)C(=O)CC[C@H](OC(=O)c1cccnc1)c1cccc(OCCO)c1 | YES
C=CCC(OC(C)=O)[C@@H]1[C@@H](N(Cc2ccc(-c3ccccc3)cc2)C(=O)c2ccc(-c3ccccc3)cc2)c2cc(OCCCO)ccc2N1C(=O)c1ccc(-c2ccccc2)cc1 (stereo partly drawn) | YES
C=CCN1C(=O)[C@@]2(O[C@@H](CCn3cc(CCO)nn3)[C@H]([Si](C)(C)c3ccc(OC)cc3)[C@H]2C)c2cc(N3C(=O)c4cccc5cccc3c45)ccc21 | YES
COC(=O)C1=CC(c2ccc(CO)cc2)=CC(c2cccs2)N(C)C=C1C(=O)OC (stereo not drawn) | YES
COC(=O)C(CC#Cc1ccc2c(c1)[C@]1(C(=O)N2)[C@H](C(N)=O)[C@H]2C(=O)O[C@H](c3ccccc3)[C@H](c3ccccc3)N2[C@@H]1c1ccc(O)cc1)C(=O)OC | NO
O=C1O[C@H](c2ccccc2)[C@H](c2ccccc2)N2[C@H]1[C@@H](C(=O)NC[C@H](O)c1ccccc1)[C@]1(C(=O)Nc3ccc(C#CC4(O)CCCCCC4)cc31)[C@H]2c1ccc(O)cc1 | YES
CC(C)NC(=O)[C@@H]1c2ccccc2C(=O)N(Cc2cc(F)cc(C(F)(F)F)c2)[C@H]1c1ccc(CO)cc1 | NO
